- test_system: CNGA2RE:A4RE:B1b (Rattus norvegicus, UniProt A0A8I5ZN27+Q00195+Q64359, R430E/R538E)
- Construct: expressed in transfected cells; host or cells: Xenopus laevis oocytes (cRNA injection), excised inside-out patches
- Sequence (Q00195 whole entry R538E): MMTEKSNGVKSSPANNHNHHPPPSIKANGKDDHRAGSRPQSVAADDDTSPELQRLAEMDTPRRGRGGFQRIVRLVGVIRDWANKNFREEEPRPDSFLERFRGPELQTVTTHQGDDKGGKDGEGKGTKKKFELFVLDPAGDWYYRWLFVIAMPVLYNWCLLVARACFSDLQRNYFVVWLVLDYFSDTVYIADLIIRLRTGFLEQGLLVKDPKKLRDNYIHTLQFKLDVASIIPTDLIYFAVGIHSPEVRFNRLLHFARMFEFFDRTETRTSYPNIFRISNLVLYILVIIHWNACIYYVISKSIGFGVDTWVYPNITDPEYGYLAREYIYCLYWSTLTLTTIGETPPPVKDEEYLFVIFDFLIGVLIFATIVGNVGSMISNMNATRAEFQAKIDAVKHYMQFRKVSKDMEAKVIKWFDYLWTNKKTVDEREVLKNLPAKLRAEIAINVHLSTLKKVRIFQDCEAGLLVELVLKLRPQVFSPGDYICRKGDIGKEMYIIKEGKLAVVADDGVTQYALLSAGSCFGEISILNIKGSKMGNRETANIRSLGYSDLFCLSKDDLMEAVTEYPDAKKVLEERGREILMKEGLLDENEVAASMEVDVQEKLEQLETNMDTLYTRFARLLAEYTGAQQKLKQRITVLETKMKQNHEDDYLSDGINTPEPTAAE
- Sequence (Q64359 whole entry R430E): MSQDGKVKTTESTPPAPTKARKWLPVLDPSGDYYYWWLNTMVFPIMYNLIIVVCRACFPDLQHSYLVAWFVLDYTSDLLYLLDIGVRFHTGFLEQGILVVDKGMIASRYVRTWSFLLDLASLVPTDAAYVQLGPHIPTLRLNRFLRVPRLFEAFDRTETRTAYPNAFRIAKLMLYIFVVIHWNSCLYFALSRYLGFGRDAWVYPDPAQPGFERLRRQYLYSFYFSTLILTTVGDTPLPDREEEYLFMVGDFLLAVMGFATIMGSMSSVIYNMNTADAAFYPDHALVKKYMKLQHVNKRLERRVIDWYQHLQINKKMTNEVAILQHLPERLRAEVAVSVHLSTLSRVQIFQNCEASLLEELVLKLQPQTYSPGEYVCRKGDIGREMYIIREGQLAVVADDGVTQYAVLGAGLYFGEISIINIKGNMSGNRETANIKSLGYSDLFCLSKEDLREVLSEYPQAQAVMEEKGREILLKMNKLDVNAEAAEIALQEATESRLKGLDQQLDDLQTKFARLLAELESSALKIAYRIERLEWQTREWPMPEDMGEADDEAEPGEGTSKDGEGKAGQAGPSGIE
- Sequence (A0A8I5ZN27 1-858 isoform A0A8I5ZN27-2, stated change not applied): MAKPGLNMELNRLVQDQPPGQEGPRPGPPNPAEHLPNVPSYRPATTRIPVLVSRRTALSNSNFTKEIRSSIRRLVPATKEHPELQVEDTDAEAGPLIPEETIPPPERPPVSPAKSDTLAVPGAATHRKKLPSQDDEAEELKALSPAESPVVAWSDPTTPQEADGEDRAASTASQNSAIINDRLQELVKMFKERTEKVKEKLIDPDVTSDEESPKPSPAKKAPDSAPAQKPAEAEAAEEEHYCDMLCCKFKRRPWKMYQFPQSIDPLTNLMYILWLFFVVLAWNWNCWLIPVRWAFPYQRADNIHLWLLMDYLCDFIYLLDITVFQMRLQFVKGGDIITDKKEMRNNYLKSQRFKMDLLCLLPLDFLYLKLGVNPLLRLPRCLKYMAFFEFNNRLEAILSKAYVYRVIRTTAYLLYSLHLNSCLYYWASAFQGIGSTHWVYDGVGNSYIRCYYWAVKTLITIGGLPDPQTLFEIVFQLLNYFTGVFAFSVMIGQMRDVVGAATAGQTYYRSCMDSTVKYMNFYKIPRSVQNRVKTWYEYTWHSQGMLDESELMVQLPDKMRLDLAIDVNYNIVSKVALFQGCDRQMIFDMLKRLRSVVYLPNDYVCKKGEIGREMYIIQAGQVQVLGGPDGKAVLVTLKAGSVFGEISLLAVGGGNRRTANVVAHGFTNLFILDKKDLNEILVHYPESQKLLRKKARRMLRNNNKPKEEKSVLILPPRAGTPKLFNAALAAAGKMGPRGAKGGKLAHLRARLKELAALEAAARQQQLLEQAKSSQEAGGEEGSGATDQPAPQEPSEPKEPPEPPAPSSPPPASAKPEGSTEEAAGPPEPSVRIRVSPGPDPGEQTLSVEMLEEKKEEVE
- experimental_details: Concentration-activation relationship and activation by fluorescent ligands, patch-clamp
- Format: biochemical
- test_context: low affinity component; CNGA2RE:A4RE:B1b; Equation 2; +100 mV; read-out: EC50,l
measured_parameter: EC50 (µM)
Write the number in µM without appending the unit.

INPUT: I am curious: what EC50 value has been reported for `Nc1nc2c(ncn2[C@@H]2O[C@@H]3COP(=O)(O)O[C@H]3[C@H]2O)c(=O)[nH]1` ?
OUTPUT: 178

---

- test_system: CNGA2:B1b channels (Rattus norvegicus, UniProt A0A8I5ZN27+Q00195)
- Sequence (Q00195 whole entry): as the sequence (Q00195 whole entry R538E) above, with E538R counted along it
- Sequence (A0A8I5ZN27 1-858 isoform A0A8I5ZN27-2): as the sequence (A0A8I5ZN27 1-858 isoform A0A8I5ZN27-2, stated change not applied) above
- experimental_details: Concentration-activation relationship, inside-out patch-clamp
- test_context: Equation 1
measured_parameter: pEC50
On this scale, pEC50 is minus log10 of a concentration expressed in M (mol/L).

INPUT: I am curious: what pEC50 value has been reported for `Nc1nc2c(ncn2[C@@H]2O[C@@H]3COP(=O)(O)O[C@H]3[C@H]2O)c(=O)[nH]1` ?
OUTPUT: 5.72

Data origin, for the record: paper PMC4942689
